TESTED ON: Peptidyl-prolyl cis-trans isomerase FKBP1A (Homo sapiens)
TEST METHOD NOTES: small-molecule binding to FKBP12 – biophysical, NMR detection (AID 608)
DETAILS: purified FKBP12
The source made the active and inactive calls. The rule behind the calls is not given here.
Possible outcomes: active, inactive

>  <COMPOUND>
CCCCCC1C(=O)CCC1CC(=O)OC (stereo not drawn)

>  <ASSIGNED CATEGORY>
inactive

$$$$
>  <COMPOUND>
O=C(O)/C=C/C(=O)Nc1ccccc1C(F)(F)F

>  <ASSIGNED CATEGORY>
inactive

$$$$
>  <COMPOUND>
O=c1c2ccccc2nc2n1CCC2O (stereo not drawn)

>  <ASSIGNED CATEGORY>
inactive

$$$$
>  <COMPOUND>
CNC(Cc1c[nH]c2ccccc12)C(=O)O (stereo not drawn)

>  <ASSIGNED CATEGORY>
inactive

$$$$
>  <COMPOUND>
CSc1n[nH]c(NCc2cccs2)n1

>  <ASSIGNED CATEGORY>
inactive

$$$$
>  <COMPOUND>
Cn1nc(-c2cccs2)cc1N

>  <ASSIGNED CATEGORY>
inactive

$$$$
>  <COMPOUND>
OCc1cccc2c1OCCO2

>  <ASSIGNED CATEGORY>
inactive

$$$$
>  <COMPOUND>
CSc1nnc2[nH]c(=O)cc(N)n12

>  <ASSIGNED CATEGORY>
inactive

$$$$
>  <COMPOUND>
CC(C)c1ccc(SCC(=O)N2CCOCC2)cc1

>  <ASSIGNED CATEGORY>
active

$$$$
>  <COMPOUND>
O=C(c1sc2cc([N+](=O)[O-])ccc2c1Cl)N1CCOCC1

>  <ASSIGNED CATEGORY>
inactive

$$$$
>  <COMPOUND>
CC(=O)Oc1c(-c2ccccc2)oc2c(CC=C(C)C)c3c(c(OC(C)=O)c2c1=O)C=CC(C)(C)O3

>  <ASSIGNED CATEGORY>
inactive

$$$$
>  <COMPOUND>
Cn1c2ccccc2n2c(=S)[nH]nc12

>  <ASSIGNED CATEGORY>
inactive

$$$$
>  <COMPOUND>
Cc1ccc2c(c1)CCCN2C(=O)c1ccncc1

>  <ASSIGNED CATEGORY>
inactive

$$$$
